B1: MCOLN1 (parent)
chain: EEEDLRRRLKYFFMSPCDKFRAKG

Variants of: B1
Procedure details: protein stability index of a GFP-peptide fusion (GPS, HEK-293T) (PSI 1-6); higher = more stable;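 also: lentivirally expressed fusions sorted by FACS into six bins by GFP to DsRed ratio, PSI derived from sequencing read proportions per bin multiplied by bin number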
Experimental setup: c terminus: a fixed tail appended
Recorded endpoint: protein stability index
Lab note: record the figure alone, no unit after it.

Input line: Report protein stability index for "A22G"
Output line: 2.67

Input line: Provide one value: measured protein stability index of "F20D"
Output line: 3.79

Input line: Query protein stability index for "R7P"
Output line: 3.33

Input line: For the variant "K23H" , give its measured protein stability index value.
Output line: 1.84

Input line: Tell me its protein stability index given "E3P" as the entry.
Output line: 2.25

---
Input line: Report protein stability index, nothing else, for this variant: "F13T"
Output line: 3.61

Input line: Supply measured protein stability index of "P16I" in your reply.
Output line: 1.95

Input line: Respond only with protein stability index recorded for "L9R"
Output line: 3.35

Input line: Hello, please tell me recorded protein stability index for this one: "D18C"
Output line: 1.83

Input line: Consider the variant "A22T" and give its recorded protein stability index.
Output line: 2.19

Input line: Given "F12G" , respond with its protein stability index.
Output line: 3.43
